# Tested on: Calf-thymus DNA (ctDNA)
# experimental_details: Fluorescent intercalator displacement (FID) ctDNA binding assay with ethidium bromide
# Set-up: unit not given here
# test_settings: 75 µM ethidium bromide, 150 µM ctDNA, pH 7.0
readout_kind: KSV (Stern–Volmer quenching constant)

IN: Find KSV (Stern–Volmer quenching constant) (Calf-thymus DNA (ctDNA)) for the entry N[C@H]1CCCC[C@@H]1N.[Pt+2].c1ccc(-c2nc3ccccc3[nH]2)nc1
OUT: 2.12 × 10^3

IN: Find KSV (Stern–Volmer quenching constant) (Calf-thymus DNA (ctDNA)) for the entry N[C@H]1CCCC[C@@H]1N.[Pt+2].c1ccc(C2CCCN2)nc1 (stereo not drawn)
OUT: 4.16 × 10^3

IN: Find KSV (Stern–Volmer quenching constant) (Calf-thymus DNA (ctDNA)) for the entry [Cl][Pt][Cl].c1ccc(C2CCCN2)nc1 (stereo not drawn) [Complex 1, [Pt(PyPy)(Cl)2]]
OUT: 1.65 × 10^3

IN: Find KSV (Stern–Volmer quenching constant) (Calf-thymus DNA (ctDNA)) for the entry [Cl][Pt][Cl].c1ccc(-c2ncc[nH]2)nc1 [Complex 2, [Pt(ImPy)(Cl)2]]
OUT: 1.68 × 10^3

IN: Find KSV (Stern–Volmer quenching constant) (Calf-thymus DNA (ctDNA)) for the entry N[C@H]1CCCC[C@@H]1N.[Pt+2].c1ccc(-c2ncc[nH]2)nc1
OUT: 2.11 × 10^3

IN: Find KSV (Stern–Volmer quenching constant) (Calf-thymus DNA (ctDNA)) for the entry [Cl][Pt][Cl].c1ccc(-c2nc3ccccc3[nH]2)nc1 [Complex 3, [Pt(BImPy)(Cl)2]]
OUT: 2.18 × 10^3

###

Give measured KF (binding constant for fluorescence) for each item. Keep answers brief.
# System: Calf-thymus DNA (ctDNA)
# experimental_details: Fluorescent intercalator displacement (FID) ctDNA binding assay with ethidium bromide
# Design: unit not given here
# test_settings: 75 µM ethidium bromide, 150 µM ctDNA, pH 7.0
# Method: To achieve this, the fluorescent signal of a DNA intercalator, in this case, ethidium bromide (EtBr), is measured as increasing concentrations of PC are added. As the PC displaces the EtBr, the fluorescence of the mixture is diminished, and the DNA binding capacity of the complex can be calculated from the fluorescence measurement. […] The change in fluorescence is monitored as the complex is titrated into this solution. Once the decrease in fluorescence plateaued, the titration was ended. […]

IN: Data request, read-out KF (binding constant for fluorescence), for N[C@H]1CCCC[C@@H]1N.[Pt+2].c1ccc(-c2nc3ccccc3[nH]2)nc1
OUT: 2.94 × 10^3

IN: Data request, read-out KF (binding constant for fluorescence), for [Cl][Pt][Cl].c1ccc(C2CCCN2)nc1 (stereo not drawn) [Complex 1, [Pt(PyPy)(Cl)2]]
OUT: 2.69 × 10^3

IN: Data request, read-out KF (binding constant for fluorescence), for N[C@H]1CCCC[C@@H]1N.[Pt+2].c1ccc(-c2ncc[nH]2)nc1
OUT: 3.16 × 10^3

IN: Data request, read-out KF (binding constant for fluorescence), for N[C@H]1CCCC[C@@H]1N.[Pt+2].c1ccc(C2CCCN2)nc1 (stereo not drawn)
OUT: 6.20 × 10^3

IN: Data request, read-out KF (binding constant for fluorescence), for [Cl][Pt][Cl].c1ccc(-c2ncc[nH]2)nc1 [Complex 2, [Pt(ImPy)(Cl)2]]
OUT: 3.12 × 10^3

IN: Data request, read-out KF (binding constant for fluorescence), for [Cl][Pt][Cl].c1ccc(-c2nc3ccccc3[nH]2)nc1 [Complex 3, [Pt(BImPy)(Cl)2]]
OUT: 3.72 × 10^3

###

Give measured GI50 for each item. Keep answers brief.

IN: Find GI50 (MIA (Pancreas)) for the entry N[C@H]1CCCC[C@@H]1N.[Pt+2].c1ccc(-c2nc3ccccc3[nH]2)nc1
OUT: 0.3 µM

IN: Find GI50 (MIA (Pancreas)) for the entry [Cl][Pt][Cl].c1ccc(C2CCCN2)nc1 (stereo not drawn) [Complex 1, [Pt(PyPy)(Cl)2]]
OUT: > 50 µM

IN: Find GI50 (MIA (Pancreas)) for the entry [Cl][Pt][Cl].c1ccc(-c2nc3ccccc3[nH]2)nc1 [Complex 3, [Pt(BImPy)(Cl)2]]
OUT: > 50 µM

IN: Find GI50 (MIA (Pancreas)) for the entry [Cl][Pt][Cl].c1ccc(-c2ncc[nH]2)nc1 [Complex 2, [Pt(ImPy)(Cl)2]]
OUT: 29 µM

IN: Find GI50 (MIA (Pancreas)) for the entry N[C@H]1CCCC[C@@H]1N.[Pt+2].c1ccc(C2CCCN2)nc1 (stereo not drawn)
OUT: 12 µM

IN: Find GI50 (MIA (Pancreas)) for the entry N[C@H]1CCCC[C@@H]1N.[Pt+2].c1ccc(-c2ncc[nH]2)nc1
OUT: 0.43 µM

###

# System: Calf-thymus DNA (ctDNA)
# experimental_details: Fluorescent intercalator displacement (FID) ctDNA binding assay with ethidium bromide
# Design: unit not given here
# test_settings: 75 µM ethidium bromide, 150 µM ctDNA, pH 7.0
# Protocol: To achieve this, the fluorescent signal of a DNA intercalator, in this case, ethidium bromide (EtBr), is measured as increasing concentrations of PC are added. As the PC displaces the EtBr, the fluorescence of the mixture is diminished, and the DNA binding capacity of the complex can be calculated from the fluorescence measurement. […] The change in fluorescence is monitored as the complex is titrated into this solution. Once the decrease in fluorescence plateaued, the titration was ended. […]
Give measured Kq (bimolecular quenching constant) for each item. Keep answers brief.

IN: Data request, read-out Kq (bimolecular quenching constant), for N[C@H]1CCCC[C@@H]1N.[Pt+2].c1ccc(C2CCCN2)nc1 (stereo not drawn)
OUT: 0.83 × 10^3

IN: Data request, read-out Kq (bimolecular quenching constant), for N[C@H]1CCCC[C@@H]1N.[Pt+2].c1ccc(-c2ncc[nH]2)nc1
OUT: 0.36 × 10^3

IN: Data request, read-out Kq (bimolecular quenching constant), for [Cl][Pt][Cl].c1ccc(-c2ncc[nH]2)nc1 [Complex 2, [Pt(ImPy)(Cl)2]]
OUT: 0.50 × 10^3

IN: Data request, read-out Kq (bimolecular quenching constant), for N[C@H]1CCCC[C@@H]1N.[Pt+2].c1ccc(-c2nc3ccccc3[nH]2)nc1
OUT: 0.30 × 10^3

IN: Data request, read-out Kq (bimolecular quenching constant), for [Cl][Pt][Cl].c1ccc(C2CCCN2)nc1 (stereo not drawn) [Complex 1, [Pt(PyPy)(Cl)2]]
OUT: 0.40 × 10^3

IN: Data request, read-out Kq (bimolecular quenching constant), for [Cl][Pt][Cl].c1ccc(-c2nc3ccccc3[nH]2)nc1 [Complex 3, [Pt(BImPy)(Cl)2]]
OUT: 0.51 × 10^3

###

# System: Calf-thymus DNA (ctDNA)
# experimental_details: Fluorescent intercalator displacement (FID) ctDNA binding assay with ethidium bromide
# test_settings: 75 µM ethidium bromide, 150 µM ctDNA, pH 7.0
readout_kind: n (molar equivalents of PC at the point of intersection)
Output: the number by itself.

IN: Data request, read-out n (molar equivalents of PC at the point of intersection), for N[C@H]1CCCC[C@@H]1N.[Pt+2].c1ccc(C2CCCN2)nc1 (stereo not drawn)
OUT: 1.83

IN: Data request, read-out n (molar equivalents of PC at the point of intersection), for [Cl][Pt][Cl].c1ccc(C2CCCN2)nc1 (stereo not drawn) [Complex 1, [Pt(PyPy)(Cl)2]]
OUT: 0.91

IN: Data request, read-out n (molar equivalents of PC at the point of intersection), for [Cl][Pt][Cl].c1ccc(-c2ncc[nH]2)nc1 [Complex 2, [Pt(ImPy)(Cl)2]]
OUT: 1.18

IN: Data request, read-out n (molar equivalents of PC at the point of intersection), for N[C@H]1CCCC[C@@H]1N.[Pt+2].c1ccc(-c2ncc[nH]2)nc1
OUT: 0.87

IN: Data request, read-out n (molar equivalents of PC at the point of intersection), for [Cl][Pt][Cl].c1ccc(-c2nc3ccccc3[nH]2)nc1 [Complex 3, [Pt(BImPy)(Cl)2]]
OUT: 1.24

IN: Data request, read-out n (molar equivalents of PC at the point of intersection), for N[C@H]1CCCC[C@@H]1N.[Pt+2].c1ccc(-c2nc3ccccc3[nH]2)nc1
OUT: 0.71

###

# Tested on: Calf-thymus DNA (ctDNA)
# experimental_details: Fluorescent intercalator displacement (FID) ctDNA binding assay with ethidium bromide
# test_settings: 75 µM ethidium bromide, 150 µM ctDNA, pH 7.0
readout_kind: ΔFsat (change in fluorescence at the point of binding)
Output: the number by itself.

IN: Data request, read-out ΔFsat (change in fluorescence at the point of binding), for [Cl][Pt][Cl].c1ccc(-c2nc3ccccc3[nH]2)nc1 [Complex 3, [Pt(BImPy)(Cl)2]]
OUT: 110.3

IN: Data request, read-out ΔFsat (change in fluorescence at the point of binding), for [Cl][Pt][Cl].c1ccc(-c2ncc[nH]2)nc1 [Complex 2, [Pt(ImPy)(Cl)2]]
OUT: 80.9

IN: Data request, read-out ΔFsat (change in fluorescence at the point of binding), for N[C@H]1CCCC[C@@H]1N.[Pt+2].c1ccc(-c2nc3ccccc3[nH]2)nc1
OUT: 116.7

IN: Data request, read-out ΔFsat (change in fluorescence at the point of binding), for [Cl][Pt][Cl].c1ccc(C2CCCN2)nc1 (stereo not drawn) [Complex 1, [Pt(PyPy)(Cl)2]]
OUT: 99.1

IN: Data request, read-out ΔFsat (change in fluorescence at the point of binding), for N[C@H]1CCCC[C@@H]1N.[Pt+2].c1ccc(-c2ncc[nH]2)nc1
OUT: 122.4

IN: Data request, read-out ΔFsat (change in fluorescence at the point of binding), for N[C@H]1CCCC[C@@H]1N.[Pt+2].c1ccc(C2CCCN2)nc1 (stereo not drawn)
OUT: 135.0
